Values from the supplement of paper PMC11208160

# experiment: recombinant UMI read abundance after kanamycin selection (control-corrected) (log10(CPM+1)); higher = more efficient recombination; extreme values may be limits of the assay; sequences stand for … in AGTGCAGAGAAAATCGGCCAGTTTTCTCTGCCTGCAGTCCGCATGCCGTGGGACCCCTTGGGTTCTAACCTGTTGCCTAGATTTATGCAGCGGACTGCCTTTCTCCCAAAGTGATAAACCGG…AGGTTGGTTTCACT; site = the 11-nt donor;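 also: IS621 bridge recombinase in Escherichia coli cells against a fixed T5 target plasmid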

{"sequence_input": "ATTCGAGCATGGACCGGTTTTCCCGGTAATCCGTATTTGCA (site ATTCGAGCTTG)", "recombinant UMI read abundance (log10)": 1.49}
{"sequence_input": "GCTACCCCATGGACCGGTTTTCCCGGTAATCCGTATTTGTG (site GCTACCCCTCA)", "recombinant UMI read abundance (log10)": 0.013}
{"sequence_input": "ATGTTTGCATGGACCGGTTTTCCCGGTAATCCGTATTTGCG (site ATGTTTGCTCG)", "recombinant UMI read abundance (log10)": 1.95}
{"sequence_input": "CCTGGAACATGGACCGGTTTTCCCGGTAATCCGTATTTGTT (site CATGGAACTAA)", "recombinant UMI read abundance (log10)": 0.0113}
{"sequence_input": "AGGACTACATGGACCGGTTTTCCCGGTAATCCGTATTTGAA (site AGGACTACTCT)", "recombinant UMI read abundance (log10)": 0.127}
{"sequence_input": "CACCGTACATGGACCGGTTTTCCCGGTAATCCGTATTTGCT (site CGCCGTACTAG)", "recombinant UMI read abundance (log10)": 0.614}
{"sequence_input": "CTTCGAGCATGGACCGGTTTTCCCGGTAATCCGTATTTGCA (site ATTCGAGCTTG)", "recombinant UMI read abundance (log10)": 0.00677}
{"sequence_input": "ATCTTGGCATGGACCGGTTTTCCCGGTAATCCGTATTTGCT (site ATCTTGGCTAG)", "recombinant UMI read abundance (log10)": 0}
{"sequence_input": "ATGTTTGCATGGACCGGTTTTCCCGGTAATCCGTATTTGCT (site ATGTTTGCTAG)", "recombinant UMI read abundance (log10)": 1.94}
{"sequence_input": "CACCATGCATGGACCGGTTTTCCCGGTAATCCGTATTTGCG (site CACCATGCTCG)", "recombinant UMI read abundance (log10)": 1.28}
{"sequence_input": "TAAGCAGCATGGACCGGTTTTCCCGGTAATCCGTATTTGGC (site TAAGCAGCTGC)", "recombinant UMI read abundance (log10)": 2.92}
{"sequence_input": "ATCCAAACATGGACCGGTTTTCCCGGTAATCCGTATTTGAG (site ATCCAACCTCT)", "recombinant UMI read abundance (log10)": 0.01}
{"sequence_input": "CCCGGTCCATGGACCGGTTTTCCCGGTAATCCGTATTTGAA (site CCCGGTCCTTC)", "recombinant UMI read abundance (log10)": 0.00874}
{"sequence_input": "GAGCTAACATGGACCGGTTTTCCCGGTAATCCGTATTTGAT (site GAGCTTACTAT)", "recombinant UMI read abundance (log10)": 0.00927}
{"sequence_input": "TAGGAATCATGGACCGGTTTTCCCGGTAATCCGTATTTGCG (site TGGGAATCTCG)", "recombinant UMI read abundance (log10)": 1.02}
{"sequence_input": "AGTAAGGCATGGACCGGTTTTCCCGGTAATCCGTATTTGCT (site AGCAAGGCTAG)", "recombinant UMI read abundance (log10)": 1.21}
{"sequence_input": "GCTAATGCATGGACCGGTTTTCCCGGTAATCCGTATTTGCC (site GCTACTGCTGG)", "recombinant UMI read abundance (log10)": 0}
{"sequence_input": "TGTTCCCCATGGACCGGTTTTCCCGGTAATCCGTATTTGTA (site TGGTCCCCTTA)", "recombinant UMI read abundance (log10)": 0}
